Tested on: BDF1 mice, P388 leukemia ip, median survival T/C
Assay details: NCI In Vivo Anticancer Drug Screen. Data for tumor model P388 Leukemia (intraperitoneal) in B6D2F1 (BDF1) mice
Reported conditions: endpoint: median survival time; dose: 100.0 mg/kg/injection; schedule: Q01DX001 (ip); vehicle: saline; higher = longer survival
Inconclusive results and toxic doses are left out.
Readout kind: T/C

Query: Fill blank: measured T/C of the compound C[N+](C)(C)c1ncnc2nc[nH]c12 is ____.
Result: 100 % of control

Query: Fill blank: measured T/C of the compound Cc1c(N)nc([C@H](CC(N)=O)NC[C@H](N)C(N)=O)nc1C(=O)N[C@H](C(=O)N[C@H](C)[C@@H](O)[C@H](C)C(=O)N[C@H](C(=O)NCCc1nc(-c2nc(C(=O)NCCC[S+](C)C)cs2)cs1)[C@@H](C)O)C(OC1OC(CO)C(O)C(O)C1OC1OC(CO)C(O)C(OC(N)=O)C1O)c1cnc[nH]1 (stereo not given in full) is ____.
Result: 108 % of control

Query: Fill blank: measured T/C of the compound C[Si](C)(C)O[Si](C)(C)c1ccccc1 is ____.
Result: 104 % of control

Query: Fill blank: measured T/C of the compound CCN(CC)CC(C)=C(B1OC(C)(C)C(C)(C)O1)B1OC(C)(C)C(C)(C)O1 is ____.
Result: 105 % of control

Query: Fill blank: measured T/C of the compound CCN=C(N)N=C(N)N is ____.
Result: 102 % of control
